Just for reference, patent US20240150440A1 is where these values come from.

Overview of recorded log10(IC50) for various binders
Molecular target: recombinant SARS-CoV-2 RBD with C-terminal AviTag (SARS-CoV-2, UniProt P0DTC2 319-541)
Assay: ELISA, competition with coated ACE2-Fc for RBD [Cont. 7]
# log10 transformed; quantity=IC50; unit=nM

Examples with their reported log10(IC50) follow.
{"binder": "PP910 MBP-5HVZ-S2b-C10-H6 (VHH, Form: Dimer) VHH: QVQLVESGGGLVQPGGSLRLSCAASGSAFSLNYMAWFRQAPGKQREGVAIIGSGGSSDYADSVKGRFTISRDNAKNTVYLQMNSLKPEDTAVYYCAAQPNGSPDDFDYWGQGTQVTVSS", "log10(IC50)": 2.61}
{"binder": "PP908 MBP-5HVZ-S2a-C4-H6 (VHH, Form: Dimer) VHH: QVQLVESGGGLVQPGGSLRLSCAASGFSESINATAWFRQAPGKQREGVAGLDGGGSDYYSDSVKGRFTISRDNAKNTVYLQMNSLKPEDTAVYYCAAQLTSSFRGYDFTPSNYDYWGQGTQVTVSS", "log10(IC50)": 1.12}
{"binder": "PP913 MBP-5HVZ-S3a-C5-H6 (VHH, Form: Dimer) VHH: QVQLVESGGGLVQPGGSLRLSCAASGSIKNTNAMHWFRQAPGKDREWVAGITSGGNSNYGDSVKGRFTISRDNAKNTVYLQMNSLKPEDTAVYYCAAFGYRYDQDYTYDYWGQGTQVTVSS", "log10(IC50)": 0.45}
{"binder": "PP909 MBP-5HVZ-S2b-A7-H6 (VHH, Form: Dimer) VHH: QVQLVESGGGLVQPGGSLRLSCAASGSSDSWNALHWFRQAPGKEREFVAGISSAGSGYYADSVKGRFTISRDNAKNTVYLQMNSLKPEDTAVYYCNGYEHTTGYDYWGQGTQVTVSS", "log10(IC50)": 0.77}
{"binder": "PP916 MBP-5HVZ-S3b-A8-H6 (VHH, Form: Dimer) VHH: QVQLVESGGGLVQPGGSLRLSCAASGSIISRVKVHWFRQAPGKSREWVAGIDSGTASYYSDSVKGRFTISRDNAKNTVYLQMNSLKPEDTAVYYCAAENRGYGVDWGQGTQVTVSS", "log10(IC50)": 0.30}
{"binder": "PP914 MBP-5HVZ-S3a-H1-H6 (VHH, Form: Dimer) VHH: QVQLVESGGGLVQPGGSLRLSCAASGGIYSPYSMHWFRQAPGKAREWVAGIVGGGGTTYSDSVKGRFTISRDNAKNTVYLQMNSLKPEDTAVYYCNANYQEYDEYDYWGQGTQVTVSS", "log10(IC50)": 0.63}
{"binder": "PP911 MBP-5HVZ-S2b-F7-H6 (VHH, Form: Dimer) VHH: QVQLVESGGGLVQPGGSLRLSCAASGSTLSNNAMHWFRQAPGKAREFVAAIGSSDSTDYKDSVKGRFTISRDNAKNTVYLQMNSLKPEDTAVYYCTALLDSGPGEYNYWGQGTQVTVSS", "log10(IC50)": 1.64}

Here is another binder to look at.
INPUT: For PP907 MBP-5HVZ-S1b-E11-H6 (VHH, Form: Dimer) VHH: QVQLVESGGGLVQPGGSLRLSCAASGSYASIASMHWFRQAPGKEREFVAGVTSGGSTNYGDSVKGRFTISRDNAKNTVYLQMNSLKPEDTAVYYCNALAGANYESQWEEYNYWGQGTQVTVSS , what is its reported log10(IC50)?
OUTPUT: 1.20
